- System: NCI-H460 lung
- measurement-protocol: NCI-60 one-dose screen, 48 h (100 = growth as untreated, 0 = no growth, -100 = all killed)
- measurement-parameters: 10 µM unless noted
About 83,000 compounds went through this panel and 20% of them were active in at least one assay; those are over-represented in the sample as a whole.
I would appreciate it if you labelled entries true when growth is 70% or higher, otherwise false.

# compound, classification
records = [
    ("Fc1ccccc1CSc1ncnc2nc[nH]c12", "true"),
    ("Cc1n[nH]c(C)c1-c1c(C)n[nH]c1C", "false"),
    ("CO[C@@H]1[C@H](N(C)C(=O)c2ccccc2)C[C@@H]2O[C@]1(C)n1c3ccccc3c3c4c(c5c6ccccc6n2c5c31)C(=O)NC4=O", "false"),
    ("CN1CCN(CCCOc2ccc3ncnc(Nc4ccc(Oc5cccc(C(F)(F)F)c5)c(Cl)c4)c3c2)CC1", "false"),
    ("CC(=O)O[C@]1(C(C)=O)CC[C@H]2[C@@H]3C=C(Cl)C4=CC(=O)CC[C@]4(C)[C@H]3CC[C@@]21C", "true"),
    ("Clc1ccc(C2CC(c3cccc(Nc4ccncc4)c3)=NN2c2ccccc2)cc1 (stereo not given)", "false"),
]

Determine whether measured growth meets or exceeds 70% for `O=C(Nc1sc2c(c1C(=O)O)CCCC2)c1cccc(C(F)(F)F)c1`
true

Determine whether measured growth meets or exceeds 70% for COc1ccc(C(O)c2cc3c(N)c(C(=O)Nc4cccc(Br)c4C)sc3nc2C)cc1 (stereo not given)
false

Determine whether measured growth meets or exceeds 70% for `CCCNC(=O)Oc1ccc(/C(=C(\C)c2ccccc2)c2ccc(OCCN3CCCCC3)cc2)cc1`
false

Determine whether measured growth meets or exceeds 70% for Cc1ccc(C2CC(c3cccc(Nc4ccncc4)c3)=NN2c2cc(Cl)cc(Cl)c2)cc1 (stereo not given)
false

Determine whether measured growth meets or exceeds 70% for `O=C(O)CNC(=O)CN1C(=O)c2ccccc2C1=O`
true

Determine whether measured growth meets or exceeds 70% for `COc1ccc(-c2c(-c3ccccc3)noc2N)cc1OC`
true

Determine whether measured growth meets or exceeds 70% for `COc1ccc(-c2nc(N/N=C/c3cccc(Br)c3)nc(N3CCOCC3)c2C#N)cc1`
false

Determine whether measured growth meets or exceeds 70% for C/C(=C(/c1ccccc1)c1ccc(OCC(O)CN2CCOCC2)cc1)c1ccccc1 (stereo not given)
true

Determine whether measured growth meets or exceeds 70% for `COc1cc(COC(=O)CCCCC[P+](c2ccccc2)(c2ccccc2)c2ccccc2)c(OC)c2c1OCO2`
false

Determine whether measured growth meets or exceeds 70% for `Cc1ccc(C(=O)Nc2ccccc2C(=O)N/N=C(\c2ccccc2)c2ccccn2)cc1`
false

Determine whether measured growth meets or exceeds 70% for `COc1ccc(-c2nn(Cc3ccccc3)c3c2-c2oncc2CC3)cc1OC`
true

Determine whether measured growth meets or exceeds 70% for COc1cc(OC)cc(C2C3=C(COC3=O)Nc3cc(OC)ccc32)c1 (stereo not given)
false

Determine whether measured growth meets or exceeds 70% for COc1ccc(C2CC(c3cccc(Nc4ccncc4)c3)=NN2c2ccc(Cl)cc2)cc1 (stereo not given)
false

Determine whether measured growth meets or exceeds 70% for `Nc1c(C(=O)Nc2cccc3ccncc23)sc2nc3c(cc12)C(=O)CCC3`
false

* * *

- Test system: A549/ATCC NSCLC
- measurement-protocol: NCI-60 one-dose screen, 48 h (100 = growth as untreated, 0 = no growth, -100 = all killed)
- measurement-parameters: 10 µM unless noted
The panel holds about 83,000 compounds, 20% with a hit somewhere; the sample as a whole holds those more often.
property-label: growth (%)
The reply should be a number in %, with the unit left off.

Example entries and their recorded answers appear below.
# compound, growth [%]
data = [
    ("COc1nccnn1", 102),
    ("Clc1cc(Cl)cc(N2N=C(c3cccc(Nc4ccncc4)c3)CC2c2ccccc2)c1 (stereo unspecified)", 45.5),
    ("CCNC(=S)NNC(=O)c1cc2ccc1CCc1ccc(cc1)CC2", 101),
    ("O=C(O)c1cn(C2CC2)c2cc(N3CCN(C(=O)C[n+]4cccc5ccccc54)CC3)c(F)cc2c1=O", 98.7),
    ("COc1ccc(-c2nn(Cc3ccccc3)c3c2-c2oncc2CC3)cc1OC", 96.8),
]

May I ask what growth has been recorded for `CCNNC(=O)[C@@H]1[C@H](c2cc(OC)c(OC)c(OC)c2)c2cc3c(cc2[C@H](O)[C@H]1CO)OCO3` ?
9.99
